TARGET_ENTITY: T1, ZNF143 (UniProt P52747 SEQ:1-638)
T1 sequence: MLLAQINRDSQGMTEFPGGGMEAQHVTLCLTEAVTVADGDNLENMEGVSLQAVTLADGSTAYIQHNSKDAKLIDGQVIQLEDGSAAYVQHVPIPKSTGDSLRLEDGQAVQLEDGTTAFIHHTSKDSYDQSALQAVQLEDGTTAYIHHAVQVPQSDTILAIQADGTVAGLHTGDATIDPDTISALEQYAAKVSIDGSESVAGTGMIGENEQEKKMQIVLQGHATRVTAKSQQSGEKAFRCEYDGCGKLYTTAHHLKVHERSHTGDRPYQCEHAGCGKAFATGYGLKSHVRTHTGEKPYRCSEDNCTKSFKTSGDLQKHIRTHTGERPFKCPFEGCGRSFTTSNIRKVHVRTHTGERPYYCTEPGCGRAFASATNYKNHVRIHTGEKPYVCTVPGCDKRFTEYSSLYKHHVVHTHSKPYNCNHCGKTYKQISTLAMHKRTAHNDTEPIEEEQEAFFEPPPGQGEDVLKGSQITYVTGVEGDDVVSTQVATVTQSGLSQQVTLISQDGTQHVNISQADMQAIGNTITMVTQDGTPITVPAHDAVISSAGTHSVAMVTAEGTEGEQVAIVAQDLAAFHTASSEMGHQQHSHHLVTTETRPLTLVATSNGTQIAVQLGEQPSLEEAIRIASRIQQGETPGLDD
METHOD_DESCRIPTION: EMSA; also ChIP; binding retained without 5'-terminal 6 bases
ENDPOINT_LABEL: binding result

*Q* Annotate the binder ZNF367 (CDC14B) promoter site (dsDNA) DNA 1: CGGGTCCTTCCCACCTCGCCATTGG DNA 2: CCAATGGCGAGGTGGGAAGGACCCG with its measured binding result.
*A* binds

*Q* Annotate the binder WEE1 promoter site (dsDNA) DNA 1: TTAATCTGTCCCTTAATGCACTTAC DNA 2: GTAAGTGCATTAAGGGACAGATTAA with its measured binding result.
*A* binds

*Q* Annotate the binder CDC2L6 promoter site 2 (dsDNA) DNA 1: ACTTCATTTCCCAGGAGCCTCCGCG DNA 2: CGCGGAGGCTCCTGGGAAATGAAGT with its measured binding result.
*A* binds
